These measurements were taken from ChEMBL document CHEMBL3865830.

test: Reactive carbonyl species trapping activity of compound assessed as MDA adduct formation at 10 mM preincubated for 24 hrs with MDA measured after 24 hrs by LCMS analysis; format: physicochemical; conditions: 10000 µM
PROPERTY MEASURED: Activity (%)

- Cc1c(O)c(=O)ccn1CCC(=O)NCCCCC(N)CN.Cl.Cl (stereo not drawn): 92
- COc1cc(/C=C/C(=O)NCCCCC(N)CN)ccc1O.Cl.Cl (stereo not drawn): 100
- Cl.Cl.NCC(N)CCC(=O)N1CCN(C(=O)CCn2cccc(O)c2=O)CC1 (stereo not drawn): 84
- Cl.Cl.NCC(N)C(=O)N1CCNCC1 (stereo not drawn): 100
- Cl.Cl.NCC(N)CCCCNC(=O)c1cc(O)c(O)c(O)c1 (stereo not drawn): 81
- Cc1c(O)c(=O)ccn1CCCNC(=O)CCC(N)CN.Cl.Cl (stereo not drawn): 99
- Cl.Cl.NCC(N)CCCNC(=O)CCn1cccc(O)c1=O (stereo not drawn): 86
- NCCC(=O)N[C@@H](Cc1cnc[nH]1)C(=O)O: 66
- Cl.Cl.NCC(N)CCCCNC(=O)CCn1cccc(O)c1=O (stereo not drawn): 95
- CCCCN1CCN(C(=O)C(N)CN)CC1.Cl.Cl (stereo not drawn): 62
- Cl.Cl.NCC(N)CC(=O)N1CCN(C(=O)CCn2cccc(O)c2=O)CC1 (stereo not drawn): 91
- Cl.Cl.NCC(N)CCC(=O)NCCCn1cccc(O)c1=O (stereo not drawn): 93
- Cl.Cl.NCC(N)CCC(=O)N1CCN(C(=O)c2cc(O)c(O)c(O)c2)CC1 (stereo not drawn): 87
